System: Escherichia coli TOP10;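 note: peptides expressed intracellularly from a pBAD plasmid library in pooled LB shake-flask culture, induced with 0.3% L-arabinose, DNA abundance read by NGS, three biological replicates, DESeq2 with apeglm shrinkage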
Assay: shrunken log2 fold change of peptide-encoding DNA abundance (4.5 h post-induction vs induction); higher = less antimicrobial activity (less host growth inhibition)
Conditions: time post-induction: 4.5 h; library: site-saturation at positions 5, 18, 19, 20
Observable: shrunken log2 fold change

# Seq Text, Value Measured
measured = [
    ("RRIRDRPPRLPRPRPRPAMAPRP", 0.575),
    ("RRIRRRPPRLPRPRPRPNMSPRP", 2.14),
    ("RRIRKRPPRLPRPRPRPFWAPRP", 0.659),
    ("RRIRIRPPRLPRPRPRPGIGPRP", 0.127),
    ("RRIRTRPPRLPRPRPRPVKHPRP", -0.411),
    ("RRIRHRPPRLPRPRPRPAKGPRP", 0.0449),
    ("RRIRKRPPRLPRPRPRPVRVPRP", 0.591),
    ("RRIRTRPPRLPRPRPRPKRHPRP", 0.222),
    ("RRIRIRPPRLPRPRPRPMYIPRP", -0.0364),
    ("RRIRFRPPRLPRPRPRPMMHPRP", -0.181),
    ("RRIRPRPPRLPRPRPRPRRIPRP", 0.252),
    ("RRIRCRPPRLPRPRPRPWWPPRP", 0.0266),
    ("RRIRWRPPRLPRPRPRPEHEPRP", 0.623),
    ("RRIRMRPPRLPRPRPRPFTVPRP", -0.00884),
    ("RRIRQRPPRLPRPRPRPMNIPRP", -0.809),
    ("RRIRHRPPRLPRPRPRPHNKPRP", -0.866),
    ("RRIRHRPPRLPRPRPRPTQGPRP", 0.318),
    ("RRIRSRPPRLPRPRPRPLFEPRP", -0.0159),
    ("RRIRLRPPRLPRPRPRPGQGPRP", -0.0179),
    ("RRIRSRPPRLPRPRPRPAPIPRP", 0.133),
    ("RRIRGRPPRLPRPRPRPSVSPRP", 0.166),
    ("RRIRERPPRLPRPRPRPWTRPRP", -0.0974),
    ("RRIRSRPPRLPRPRPRPWNWPRP", -0.328),
]
